Ref: a melting point compilation (Tetko et al.; mined from patent text by program, amines drawn as free bases though some values may be those of a salt)

property-name: melting point

                                    compound         result
 0  Cc1cc2c(cc1O)C(C1(CC3CCCC3)CC1)N(C)CC2 (stereo not given)  136 to 138 °C
 1  COc1ccc2c(c1)C13CCCC4OC41C(C2)N(C(=O)C1CC1)CC3 (stereo not given)  134 to 136 °C
 2  C=CCC1C2CCC(C2)C1NC(=O)OCc1ccccc1 (stereo not given)          70 °C
 3                COC(=O)C=Cc1ccc(OCCCCl)cc1    58 to 59 °C
 4  CC(=O)OCC(=O)N1C(C(N)=O)Cc2c([nH]c3ccccc23)C1c1ccccc1 (stereo not given)  195 to 197 °C
 5  CCn1c(=O)c2c(-c3nc(C4CC4)no3)ncn2c2cccnc21  262 to 263 °C
 6                    CCn1cc(CC(=O)OC)c(O)n1    72 to 73 °C
 7      CCC1(C)SC(C)N=C1C (stereo not given)          82 °C
 8               COC(=O)c1ccc(OC)c2oc(C)cc12  127 to 129 °C
 9                 COC(=O)c1ccc2cc(Cl)ccc2c1    97 to 98 °C
10  COc1cccc(C(=O)NC2(C(=O)c3cc(C)cc(C)c3)CC2)c1C  174 to 176 °C
11  CCC(=O)c1cc(C)nc2c1c(C)nn2-c1c(C)cc(C)cc1C  117 to 118 °C
12  CCOC(=O)C1Oc2ccc(Cl)cc2C(C)(c2ccccc2)O1 (stereo not given)          92 °C
13    CCc1c(Cc2ccccc2)c2ccc(OC)cc2n1CC(=O)NN  164 to 166 °C
14  CS(=O)(=O)Nc1cccc(C=C2c3ccc(Cl)cc3CCc3cc(Cl)ccc32)c1         182 °C
15  CC(CCCC(C)(O)CO)C1CCC2C3CC=C4CC(O)CCC4(C)C3CCC12C (stereo not given)  173 to 176 °C
16  COc1ccc(/C=C/c2nc3cc(C(=O)O)ccc3[nH]2)cc1OC       > 285 °C
17                   N=Cc1ccccc1[N+](=O)[O-]  117 to 119 °C
18  N#Cc1ccc(C(F)(F)C(F)(F)C(F)(F)c2ccc(C#N)c(C#N)c2)cc1C#N  133 to 135 °C
19  CC(C)(C)C(O)(c1ccccc1)c1cc(Cl)ccc1O (stereo not given)         146 °C
20        COC(=O)c1ccc(NS(C)(=O)=O)c(C=NO)c1         160 °C
21   Nc1nnc(-c2ccnc3[nH]c(CCc4ccccc4)cc23)o1  234 to 235 °C
22  COc1cc(Nc2nccc(-c3cccc(O)c3)n2)cc(OC)c1OC  191 to 192 °C
23                COc1cc(NC(C)=O)c(OC)cc1C#N  165 to 168 °C
24  CC1CC(N)=NN1c1cncc(Cl)n1 (stereo not given)  147 to 148 °C

---

Overview of reported melting point across a group of compounds:
property-name: melting point

                                    compound         result
 0  Cc1cc(-n2ccnc2)c2cccc(OCc3c(Cl)ccc(S(=O)(=O)N4CCC[C@H]4C(=O)NCCN4CCCC4)c3Cl)c2n1         105 °C
 1  CN(C)c1ccc(NC(=O)N(CC2CCC(CN(C(=O)Nc3ccc(N(C)C)cc3)C3CC4CCC3C4)CC2)C2CC3CCC2C3)cc1 (centres undefined)  188 to 191 °C
 2          CCc1ccc2nnc(C(=O)Oc3ccccc3)cc2c1  143 to 145 °C
 3               CC(C)(C)NNC(=O)c1ccc(Cl)cc1  116 to 122 °C
 4  CNc1nc(Nc2ccc(Cl)c(Cl)c2)ncc1NS(=O)(=O)Cc1ccccc1  233 to 235 °C
 5   CCOC(=O)c1cc2c(OCc3ccccc3)cc(C)cc2[nH]1  167 to 168 °C
 6  O=C(NC1CCc2ccccc2C1=O)c1ccccc1 (centres undefined)         175 °C
 7  O=C(CCCN1CCC(c2ccccc2)(c2ccccc2)CC1)c1ccc(F)cc1  107 to 108 °C
 8  CC(C)(C)NC(=O)[C@@H]1C[C@H](O)CN1C(=O)OCc1ccccc1  129 to 130 °C
 9  Cc1cccc(C2OCC(OCc3ccccc3)CO2)c1 (centres undefined)    68 to 70 °C
10  CC(C)(C)OC(=O)N1CCN(CCC#N)CC1C(N)=O (centres undefined)  117 to 118 °C
11      COc1ccc(C(=O)Nc2ccc3sc(C)nc3c2Cl)cc1         182 °C
12  CC1=CC(COC(c2ccccc2)(c2ccccc2)c2ccccc2)OC1O (centres undefined)  100 to 102 °C
13  Cc1cc(-n2ccnc2)c2cccc(OCc3c(Cl)ccc(S(=O)(=O)N4CCC[C@H]4C(=O)NCC4CC4)c3Cl)c2n1         100 °C
14  CCOC(=O)C1=C(C)NC(c2ccco2)=C(C(=O)OCC)C1c1cccc([N+](=O)[O-])c1 (centres undefined)  130 to 131 °C
15  CN(Cc1cccc2c1CN(C1CCC(=O)NC1=O)C2=O)C(=O)Nc1cccc2ccccc12 (centres undefined)  292 to 294 °C
16  CN1CCN(c2cc(NC(=O)OC(C)(C)C)c([N+](=O)[O-])cc2I)CC1  134 to 136 °C
17    COc1ccc(C(=O)c2ccc3cc(OC)ccc3c2)c(F)c1  120 to 122 °C
18  CC1(C)CC(C)(C)CC(CCCc2ccccc2)(NC(=O)CCl)C1    83 to 85 °C
19          CCC(=O)c1cc(C(=O)O)c(=O)[nH]c1CC  180 to 182 °C
20  CC(C)N1C(=O)CCCc2cc(Nc3ncc(Cl)c(N[C@@H]4CCCC[C@H]4NS(C)(=O)=O)n3)ccc21  141 to 143 °C
21        O=C(O)c1ccc2c(c1)CCc1c(F)cccc1C2=O  248 to 250 °C
22              CNC(=O)Cc1ccccc1[N+](=O)[O-]         147 °C
23                N#Cc1c(N)cccc1[N+](=O)[O-]  196 to 198 °C
24       O=C(O)CCCCCCCNS(=O)(=O)c1cccc(Cl)c1    85 to 86 °C
25  NC(CCNc1ccc(C(O)(C(F)(F)F)C(F)(F)F)cc1)c1ccc(F)cc1 (centres undefined)  136 to 137 °C
26  COc1cc(C)nc2nc(S(=O)(=O)Nc3c(Cl)cccc3Cl)nn12  214 to 215 °C
27  CCCN(CCC)C(=O)Cn1c(-c2ccc(Br)cc2)nc2cccnc21  153 to 155 °C
28  COc1cc2c(cc1Br)-c1cc3c(n1CC2)C(=O)N(C(C)(C)C)CCCC3  127 to 129 °C

---

property-name: melting point

In [3]: df
Out[3]:
                                    compound         result
 0  CC(=O)c1cn(S(=O)(=O)c2ccccc2)c2nccc(OCc3ccccc3)c12  164 to 166 °C
 1  COc1ccc(-c2cc(Oc3c(C)cc(C)cc3C)nc(C)n2)cc1OC  122 to 125 °C
 2  COc1cc(CC(=O)NCCCc2ccc(C)c(C)c2)ccc1OCCN(CCO)CCO    54 to 58 °C
 3  O=C(NC1CCCCC1)NS(=O)(=O)c1ccc(CCNC(=O)N2CCC3=C(CCCC3)C2=O)cc1  176 to 177 °C
 4  OC1Cc2ccccc2Sc2cc(F)c(Cl)cc21 (stereo unspecified)    69 to 71 °C
 5  CC(=O)C(C#N)C(=O)C1CC1 (stereo unspecified)  62 to 63.5 °C
 6  CCC(C)N1CC(C)=CC2=C1N1CN(OC)C=C1N=N2 (stereo unspecified)  157 to 159 °C
 7                   COc1cc(C)ccc1S(=O)(=O)O    92 to 94 °C
 8   COc1ccc(C(=O)c2sc3ccccc3c2-c2ccccc2)cc1    94 to 95 °C
 9    CCOC(=O)/C=C/c1ccc(O)c([N+](=O)[O-])c1  114 to 115 °C
10  CCOC(NC(=O)c1ccccc1)C(N)=O (stereo unspecified)  148 to 150 °C

---

Overview of reported melting point across a group of compounds:
property-name: melting point (°C)

>>> df
                               input_smiles  property_name  unit_spec  quantitative_readout
0  CC(C)(C)OC(=O)N1CCC[C@H]1C(=O)OCCCNc1cccc2c1C(=O)c1ccccc1C2=O  melting point         °C                   121
1  O=S(=O)(c1cccc(-c2cc(-c3nc(-c4ccc(C(F)(F)F)cc4)cc(C(F)(F)F)n3)ccn2)c1)N1CCCC1  melting point         °C                   184
2      O=P1(O)Oc2ccccc2-c2cc(C(F)(F)F)ccc21  melting point         °C                   240
3       O=C(O)c1cc(Cl)c(Cl)c(S(=O)(=O)Cl)c1  melting point         °C                   203
